# TEST TARGET: UniProtKB Q8TBX8
# Sequence (Q8TBX8 1-421): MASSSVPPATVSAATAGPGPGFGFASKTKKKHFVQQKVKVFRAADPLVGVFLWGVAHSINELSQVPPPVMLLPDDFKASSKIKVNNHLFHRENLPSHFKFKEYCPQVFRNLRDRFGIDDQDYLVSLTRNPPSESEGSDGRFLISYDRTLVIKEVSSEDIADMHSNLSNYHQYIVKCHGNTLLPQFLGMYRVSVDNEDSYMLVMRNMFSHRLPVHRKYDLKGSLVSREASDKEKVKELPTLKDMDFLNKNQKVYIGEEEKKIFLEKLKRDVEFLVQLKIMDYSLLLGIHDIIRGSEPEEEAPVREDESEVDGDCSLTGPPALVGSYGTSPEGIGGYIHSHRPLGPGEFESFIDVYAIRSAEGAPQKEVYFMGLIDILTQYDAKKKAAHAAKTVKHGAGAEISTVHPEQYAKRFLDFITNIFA
# PROCEDURE SUMMARY: HiBiT PIP4K2C degradation assay in MOLT-4 cells (endogenous PIP4K2C C-terminally tagged with HiBiT)
# Type: cell-based
# Set-up: untagged in primary human PBMCs and monocyte-derived dendritic cells
# MEASUREMENT CONDITIONS: 6 hours of incubation time, rather than 24 hours; MOLT-4, top concentration 10 micromolar; read-out: HiBIT-degradation MOLT4 PIP4k2C DC50 (6 hours, marked *)
TEST READOUT: DC50

Example cases with answers are listed next.
[
  {
    "COMPOUND": "O=C1CCC(Nc2ccc(N3CCN([C@H]4CC[C@H](C(=O)N[C@H]5CC[C@H](Nc6ncc(F)c(-c7cccc(-c8ccc[nH]c8=O)c7)n6)CC5)CC4)CC3)c(F)c2)C(=O)N1 (stereo partly drawn)",
    "TEST TARGET": "UniProtKB Q8TBX8",
    "REPORTED MEASUREMENT": "< 0.5 µM"
  },
  {
    "COMPOUND": "O=C1CCC(Nc2ccc(C3CCN(C(=O)CC4(O)CCN(C(=O)O[C@H]5CC[C@H](Nc6ncc(F)c(-c7cccc(-n8ccccc8=O)c7)n6)CC5)CC4)CC3)c(F)c2)C(=O)N1 (stereo partly drawn)",
    "TEST TARGET": "UniProtKB Q8TBX8",
    "REPORTED MEASUREMENT": "< 0.5 µM"
  }
]

Kindly consider the entry below.
For O=C1CCC(Nc2ccc(N3CCN(C4CCN(C(=O)O[C@H]5CC[C@H](Nc6ncc(F)c(-c7cccc(N8CCOCC8=O)c7)n6)CC5)CC4)CC3)c(F)c2)C(=O)N1 (stereo partly drawn) , what is its reported DC50?
< 0.5 µM
